- Test system: Hepatitis C virus
- assay.info: Antiviral activity against HCV JFH-1 in Huh7 cells infected with supernatant from 3 days compound treated Huh7 cells with HCV JFH-1 infection assessed as reduction in HCV production by measuring viral RNA level measured after 48 hrs post re-infection by RT-PCR analysis
- Type: functional, organism-based, Hepacivirus hominis
- stated.conditions: JFH-1, Huh-7
reported.metric: IC50

Task: Which IC50 reading was recorded for the compound CC1(C)C=Cc2cc(C3CC(=O)c4ccc(OCc5cn(Cc6ccccc6Cl)nn5)cc4O3)ccc2O1 (configuration not stated) ?
Output: 5.29 µM

Task: Which IC50 reading was recorded for the compound CC1(C)C=Cc2cc(C3CC(=O)c4ccc(OCc5cn(Cc6ccc(F)cc6)nn5)cc4O3)ccc2O1 (configuration not stated) ?
Output: 9 µM
